method: Lipophilicity
Format: physicochemical
measure_name: logP
Give bare numbers.

Task: Form field: reported logP of CS(=O)(=O)c1ccc(-c2cc(C(F)(F)F)nc(NCc3ccc([18F])cc3)n2)cc1 [[^18F]Pyricoxib]
Result: 3.37
